The measurements presented in this section are drawn from paper PMC8809517.

# Target: T1, GFP-9S library array, motif 4 ND N98K;D124K (synthetic construct, N98K;D124K)
# T1 chain: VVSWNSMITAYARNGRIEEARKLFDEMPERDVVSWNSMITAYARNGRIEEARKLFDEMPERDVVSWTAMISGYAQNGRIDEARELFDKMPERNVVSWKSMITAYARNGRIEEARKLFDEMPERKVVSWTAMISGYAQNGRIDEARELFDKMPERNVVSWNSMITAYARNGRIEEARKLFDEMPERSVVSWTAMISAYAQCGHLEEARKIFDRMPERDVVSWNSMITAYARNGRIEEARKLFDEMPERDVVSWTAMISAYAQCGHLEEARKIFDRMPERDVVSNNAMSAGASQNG
# Measurement notes: high-throughput RNA pulldown from lysate on Ni-NTA beads; HRP: 50 mM Tris pH 8, 150 mM NaCl, 1 mM beta-mercaptoethanol, 50 ug/ml BSA, 3 ug/ml yeast RNA, 0.5% heparin; ITC and FP: Tris pH 8, 200 mM KCl, 5% glycerol; MST: 50 mM Tris pH 8, 200 mM NaCl, 1 mM DTT, BSA, heparin, 0.05% Tween 20
# Condition set: tags: N-terminal His-eGFP; label: 5' IRDye 800CW
Property name: Kd (nM)

• AUUAAACGUGA (ssRNA) [IR-rpoA-A] = 254
• AUUAUACGUGA (ssRNA) [IR-rpoA-U] = 83.8
